Listed here: items and their measured pIC50.
Target: human Cav2.2 (Homo sapiens, UniProt Q00975)
Sequence (Q00975 whole entry): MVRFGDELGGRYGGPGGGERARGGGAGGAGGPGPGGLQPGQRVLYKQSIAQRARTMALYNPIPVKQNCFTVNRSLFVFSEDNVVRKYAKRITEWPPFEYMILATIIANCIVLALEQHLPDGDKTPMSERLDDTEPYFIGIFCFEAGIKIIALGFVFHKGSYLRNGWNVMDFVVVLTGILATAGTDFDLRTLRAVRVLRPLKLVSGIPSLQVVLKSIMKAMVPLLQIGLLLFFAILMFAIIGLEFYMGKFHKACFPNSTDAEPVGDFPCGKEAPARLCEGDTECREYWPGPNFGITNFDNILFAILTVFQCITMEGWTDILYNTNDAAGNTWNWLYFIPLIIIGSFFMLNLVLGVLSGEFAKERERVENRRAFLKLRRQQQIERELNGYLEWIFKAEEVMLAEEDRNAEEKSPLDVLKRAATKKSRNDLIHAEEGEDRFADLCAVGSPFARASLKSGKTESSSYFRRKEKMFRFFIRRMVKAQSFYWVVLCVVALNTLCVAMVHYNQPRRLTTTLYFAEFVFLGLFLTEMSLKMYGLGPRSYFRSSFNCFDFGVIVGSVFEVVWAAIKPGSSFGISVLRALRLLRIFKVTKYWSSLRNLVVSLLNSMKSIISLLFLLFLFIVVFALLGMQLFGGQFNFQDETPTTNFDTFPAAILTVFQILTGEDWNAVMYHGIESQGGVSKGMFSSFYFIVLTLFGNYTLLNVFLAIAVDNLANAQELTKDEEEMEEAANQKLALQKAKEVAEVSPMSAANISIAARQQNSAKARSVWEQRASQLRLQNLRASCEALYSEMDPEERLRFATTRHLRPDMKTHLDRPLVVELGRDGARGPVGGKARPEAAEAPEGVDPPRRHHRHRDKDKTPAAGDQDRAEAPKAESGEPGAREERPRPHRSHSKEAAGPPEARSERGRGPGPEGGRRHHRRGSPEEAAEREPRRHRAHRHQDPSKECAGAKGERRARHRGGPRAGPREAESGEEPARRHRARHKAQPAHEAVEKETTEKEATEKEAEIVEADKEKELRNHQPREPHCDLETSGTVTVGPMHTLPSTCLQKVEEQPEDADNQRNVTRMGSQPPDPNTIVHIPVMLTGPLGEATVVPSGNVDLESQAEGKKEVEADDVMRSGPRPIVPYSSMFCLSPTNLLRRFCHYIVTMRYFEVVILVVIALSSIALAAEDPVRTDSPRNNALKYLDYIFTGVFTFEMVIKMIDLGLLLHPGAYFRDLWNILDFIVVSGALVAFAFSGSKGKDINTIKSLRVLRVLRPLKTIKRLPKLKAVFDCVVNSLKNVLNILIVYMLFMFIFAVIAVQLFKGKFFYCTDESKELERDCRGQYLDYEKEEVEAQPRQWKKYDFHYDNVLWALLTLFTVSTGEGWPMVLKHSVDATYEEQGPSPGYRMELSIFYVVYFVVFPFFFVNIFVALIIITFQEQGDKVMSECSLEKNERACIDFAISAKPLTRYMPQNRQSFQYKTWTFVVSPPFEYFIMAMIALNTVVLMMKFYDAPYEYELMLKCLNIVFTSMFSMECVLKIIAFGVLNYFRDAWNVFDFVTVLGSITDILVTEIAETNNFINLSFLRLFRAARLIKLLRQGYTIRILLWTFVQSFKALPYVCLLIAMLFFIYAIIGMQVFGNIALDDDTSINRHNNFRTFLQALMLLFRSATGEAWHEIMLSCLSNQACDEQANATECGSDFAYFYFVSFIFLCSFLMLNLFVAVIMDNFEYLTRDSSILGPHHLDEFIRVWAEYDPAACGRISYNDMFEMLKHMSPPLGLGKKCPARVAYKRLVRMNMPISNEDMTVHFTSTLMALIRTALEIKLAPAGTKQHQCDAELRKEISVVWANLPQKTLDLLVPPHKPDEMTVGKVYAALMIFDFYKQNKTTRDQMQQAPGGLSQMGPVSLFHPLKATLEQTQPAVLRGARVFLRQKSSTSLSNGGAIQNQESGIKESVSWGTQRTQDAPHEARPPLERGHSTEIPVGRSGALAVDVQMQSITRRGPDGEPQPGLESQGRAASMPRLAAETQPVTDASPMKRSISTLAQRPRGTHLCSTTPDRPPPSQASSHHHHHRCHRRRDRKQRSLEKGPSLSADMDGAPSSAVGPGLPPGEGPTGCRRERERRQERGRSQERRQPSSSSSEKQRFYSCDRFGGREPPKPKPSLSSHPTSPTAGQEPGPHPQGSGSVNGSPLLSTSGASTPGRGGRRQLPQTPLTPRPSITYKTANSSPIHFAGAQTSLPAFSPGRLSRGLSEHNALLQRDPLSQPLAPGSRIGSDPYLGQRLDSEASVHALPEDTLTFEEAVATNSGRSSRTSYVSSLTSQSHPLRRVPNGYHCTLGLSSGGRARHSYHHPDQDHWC
Sequence (P54289 25-956 partner limits assumed): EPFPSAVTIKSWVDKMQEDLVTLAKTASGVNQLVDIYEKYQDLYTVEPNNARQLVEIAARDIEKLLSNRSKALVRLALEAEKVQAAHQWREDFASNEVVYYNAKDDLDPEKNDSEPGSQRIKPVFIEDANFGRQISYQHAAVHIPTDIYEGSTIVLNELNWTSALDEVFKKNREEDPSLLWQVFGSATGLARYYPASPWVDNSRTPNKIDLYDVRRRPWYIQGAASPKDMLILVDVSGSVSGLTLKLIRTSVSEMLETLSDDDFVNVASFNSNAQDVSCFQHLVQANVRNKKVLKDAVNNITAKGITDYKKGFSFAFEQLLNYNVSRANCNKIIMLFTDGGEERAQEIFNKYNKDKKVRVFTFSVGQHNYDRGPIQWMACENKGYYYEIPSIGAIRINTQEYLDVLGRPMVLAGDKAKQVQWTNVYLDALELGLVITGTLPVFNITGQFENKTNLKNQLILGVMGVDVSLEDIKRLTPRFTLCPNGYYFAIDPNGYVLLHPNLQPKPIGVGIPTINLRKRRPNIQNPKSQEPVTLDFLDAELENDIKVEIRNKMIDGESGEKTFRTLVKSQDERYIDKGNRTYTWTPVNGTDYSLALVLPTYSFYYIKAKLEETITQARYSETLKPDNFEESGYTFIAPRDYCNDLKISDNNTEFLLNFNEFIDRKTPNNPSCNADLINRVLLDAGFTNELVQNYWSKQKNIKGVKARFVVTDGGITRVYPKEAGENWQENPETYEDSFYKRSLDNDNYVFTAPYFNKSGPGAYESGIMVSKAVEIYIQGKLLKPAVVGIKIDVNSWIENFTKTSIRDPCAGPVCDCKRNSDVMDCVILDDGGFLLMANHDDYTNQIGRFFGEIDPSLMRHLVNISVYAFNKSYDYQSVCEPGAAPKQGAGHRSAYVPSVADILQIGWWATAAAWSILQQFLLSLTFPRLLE
Sequence (P54289 957-1103 partner limits assumed): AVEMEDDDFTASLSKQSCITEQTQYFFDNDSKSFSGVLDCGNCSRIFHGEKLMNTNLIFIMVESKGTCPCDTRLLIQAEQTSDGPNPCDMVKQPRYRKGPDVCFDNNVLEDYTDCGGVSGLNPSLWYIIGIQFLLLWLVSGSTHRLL
Sequence (P54284 whole entry partner): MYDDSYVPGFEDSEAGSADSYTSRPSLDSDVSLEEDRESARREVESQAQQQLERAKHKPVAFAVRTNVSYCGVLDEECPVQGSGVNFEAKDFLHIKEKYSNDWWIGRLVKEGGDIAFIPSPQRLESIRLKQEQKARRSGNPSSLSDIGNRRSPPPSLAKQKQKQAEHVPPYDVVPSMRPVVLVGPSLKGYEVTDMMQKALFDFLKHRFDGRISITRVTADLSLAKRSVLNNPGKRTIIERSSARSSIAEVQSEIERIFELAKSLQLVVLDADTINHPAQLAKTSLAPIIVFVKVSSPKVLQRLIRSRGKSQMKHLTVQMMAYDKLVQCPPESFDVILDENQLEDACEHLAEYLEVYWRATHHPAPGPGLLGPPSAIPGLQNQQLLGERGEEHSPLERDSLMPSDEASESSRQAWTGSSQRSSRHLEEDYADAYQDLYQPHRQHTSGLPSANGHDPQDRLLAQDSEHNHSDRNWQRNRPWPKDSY
Experiment: Assessment of calcium channel activity using FLIPR (Ca2+ influx in IMR32 cells)
Assay type: cell-based
Recall that pIC50 is obtained by taking minus log10 of the concentration measured in molar.

structure-smiles | value-measured
FC(F)(F)c1cccc(N2C[C@H]3CC[C@H](NCc4cccc5nsnc45)[C@H]3C2)n1 | 6.32
O=C(N[C@H]1CC[C@H]2CN(Cc3ccc(F)cc3)C[C@H]21)C(C1CCCCC1)C1CCCCC1 | 6.13
Cc1cccc2c(CN[C@H]3CC[C@@H]4CN(c5cccc(C(F)(F)F)n5)C[C@@H]43)c[nH]c12 | 5.82
FC(F)(F)c1cccc(N2C[C@H]3CC[C@H](NCc4cc5cc(Cl)ccc5[nH]4)[C@H]3C2)n1 | 5.52
CN[C@@H](CC(C)C)C(=O)N[C@@H]1CC[C@H]2CN(c3ccc(C(F)(F)F)cc3)C[C@H]21 | 5.70

Read the next record carefully.
Given item O=C(N[C@H]1CC[C@@H]2CN(c3ccccc3F)C[C@@H]21)[C@@H]1C[C@@H](F)CN1 , the value recorded as its pIC50 is 4.83

###

Biological target: UniProt:Q00975
Test: Assessment of calcium channel activity using FLIPR (Ca2+ influx in IMR32 cells)
Format: cell-based
Listed here: items and their measured pIC50.
Recall that pIC50 is obtained by taking minus log10 of the concentration measured in molar.

Below, each entry is followed by its recorded pIC50 result.
structure-smiles | pIC50
CN[C@@H](CC(C)C)C(=O)N[C@H]1CC[C@@H]2CN(c3ccc(OC(F)(F)F)cc3F)C[C@@H]21 | 5.94
O=S(=O)(Cc1ccc(Cl)cc1)N[C@H]1CC[C@@H]2CN(c3cccc(C(F)(F)F)n3)C[C@@H]21 | 5.45
O=C(N[C@H]1CC[C@@H]2CN(c3ccc(C(F)(F)F)cn3)C[C@@H]21)c1cc2ccccc2[nH]1 | 5.68

Read the next record carefully.
Given item CCC[C@H](N)C(=O)N[C@H]1CC[C@@H]2CN(S(=O)(=O)c3ccc(C(F)(F)F)cc3)C[C@@H]21 , the value recorded as its pIC50 is 5.11

###

Biological target: human Cav2.2 (Homo sapiens, UniProt Q00975)
Assay: Assessment of calcium channel activity using FLIPR (Ca2+ influx in IMR32 cells)
Assay type: cell-based
Settings: read-out: IC50 (μM) or percent inhibition (* indicates 3 minute incubation, otherwise 60 minute); IC50; 60 minute pre-incubation with compound; IMR32 cells, 80 mM KCl depolarization
hey, just use Y if measured IC50 is less than 3 µM, otherwise N

Below are worked cases with known answers.
compound | label-value
O=S(=O)(c1cccc(C(F)(F)F)c1)N(C1CC1)[C@H]1CC[C@H]2CN(Cc3ccccc3)C[C@H]21 (relative stereo) | Y
CC(C)C(C(=O)N[C@H]1CC[C@@H]2CN(Cc3cccs3)C[C@@H]21)c1ccccc1 (stereo partly shown) | Y

Lookup: Is 3 µM strictly greater than the compound's reported IC50? compound: CC(C)C(C(=O)N[C@H]1CC[C@@H]2CN(Cc3cccc(F)c3)C[C@@H]21)c1ccccc1 (stereo partly shown)
Found: N

Lookup: Is 3 µM strictly greater than the compound's reported IC50? compound: CC(C)C[C@H](C(=O)N[C@H]1CC[C@H]2CN(Cc3cccc(C(F)(F)F)c3)C[C@H]21)N(C)C(=O)OC(C)(C)C (relative stereo)
Found: Y

Lookup: Is 3 µM strictly greater than the compound's reported IC50? compound: CC(C)C[C@@H](NC(=O)OC(C)(C)C)C(=O)N[C@@H]1CC[C@H]2CN(Cc3cccc(C(F)(F)F)c3)C[C@H]21 (relative stereo)
Found: Y

Lookup: Is 3 µM strictly greater than the compound's reported IC50? compound: O=C(N[C@@H]1CC[C@H]2CN(Cc3cc(C(F)(F)F)cc(C(F)(F)F)c3)C[C@H]21)C(C1CCCCC1)C1CCCCC1
Found: N
